- Test Protocol: Selectivity index, ratio of IC50 for african green monkey (Cercopithecus aethiops) Vero cells to IC50 for Plasmodium falciparum D6
- Assay type: toxicity, cell-based
- Reported Conditions: read-out: Ratio IC50
Assay Endpoint: selectivity ratio

These recorded examples may help you get a feel for the data.
{"columns": ["Compound", "selectivity ratio"],
 "data": [
  ["COC(=O)c1ccc(C2OOC(c3ccc(C)cc3)OO2)cc1 (stereo unspecified)", "> 4"],
  ["Cc1ccc(C2OOC(c3ccc(C(C)(C)C)cc3)OO2)cc1 (stereo unspecified)", "> 25.1"],
  ["Cc1ccc(C2OOC(c3ccc(C(C)C)cc3)OO2)cc1 (stereo unspecified)", "> 26.4"],
  ["CCCCc1ccc(C2OOC(c3ccc(CCCC)cc3)OO2)cc1 (stereo unspecified)", "> 3.7"],
  ["COc1ccc(C2OOC(c3ccc(C)cc3)OO2)cc1 (stereo unspecified)", "> 21.6"],
  ["C[C@@H]1CC[C@H]2[C@@H](C)C(=O)O[C@@H]3O[C@@]4(C)CC[C@@H]1[C@]32OO4 [ARTEMISININ]", "> 476"]
]}

# selectivity ratio of CC(C)c1ccc(C2OOC(c3ccc(C(C)C)cc3)OO2)cc1 (stereo unspecified) = > 21.6

The recorded selectivity ratio for entry CCc1ccc(C2OOC(c3ccc(CC)cc3)OO2)cc1 (stereo unspecified) equals > 15.9

// selectivity ratio lookup, compound = CC(C)(C)c1ccc(C2OOC(c3ccc(C(C)(C)C)cc3)OO2)cc1 (stereo unspecified) , result: > 6.1

response.value for CCCc1ccc(C2OOC(c3ccc(CCC)cc3)OO2)cc1 (stereo unspecified) (field: selectivity ratio) = > 23.8

Documented selectivity ratio of CCc1ccc(C2OOC(c3ccc(C)cc3)OO2)cc1 (stereo unspecified) : > 43.6

###

- Test Protocol: Selectivity index, ratio of IC50 for african green monkey (Cercopithecus aethiops) Vero cells to IC50 for Plasmodium falciparum W2
- Type: toxicity, cell-based
- Reported Conditions: read-out: Ratio IC50
# key: entry, value: selectivity ratio

// field: selectivity ratio; key: CCCCc1ccc(C2OOC(c3ccc(CCCC)cc3)OO2)cc1 (stereo unspecified) ; value = > 2.8

selectivity ratio measured on Cc1ccc(C2OOC(c3ccc(C(C)C)cc3)OO2)cc1 (stereo unspecified) = > 20.7

Kindly note the recorded selectivity ratio for C[C@@H]1CC[C@H]2[C@@H](C)C(=O)O[C@@H]3O[C@@]4(C)CC[C@@H]1[C@]32OO4 , which is > 1400

###

- Test Protocol: Selectivity index, ratio of IC50 for african green monkey (Cercopithecus aethiops) Vero cells to IC50 for Plasmodium falciparum W2
- Type: toxicity, cell-based
- Reported Conditions: read-out: Ratio IC50
Assay Endpoint: selectivity ratio

Solved entries:
{"columns": ["Molecule", "Data Value"],
 "data": [
  ["CC(C)(C)c1ccc(C2OOC(c3ccc(C(C)(C)C)cc3)OO2)cc1 (stereo not drawn)", "> 3.4"],
  ["CC(C)c1ccc(C2OOC(c3ccc(C(C)C)cc3)OO2)cc1 (stereo not drawn)", "> 14"],
  ["COc1ccc(C2OOC(c3ccc(C)cc3)OO2)cc1 (stereo not drawn)", "> 15.4"],
  ["COC(=O)c1ccc(C2OOC(c3ccc(C)cc3)OO2)cc1 (stereo not drawn)", "> 2.5"],
  ["Cc1ccc(C2OOC(c3ccc(C(C)(C)C)cc3)OO2)cc1 (stereo not drawn)", "> 19"]
]}

The reported value for CCc1ccc(C2OOC(c3ccc(C)cc3)OO2)cc1 (stereo not drawn) in terms of selectivity ratio is > 36.7

CCCc1ccc(C2OOC(c3ccc(CCC)cc3)OO2)cc1 (stereo not drawn) has a reported selectivity ratio of > 19

// CCc1ccc(C2OOC(c3ccc(CC)cc3)OO2)cc1 (stereo not drawn) : selectivity ratio value = > 15.9
